- tested-system: androgen receptor (AdEasy+rAR, L929 cells) (Rattus norvegicus)
- Construct: expressed in transfected cells; host or cells: L929 cells transduced with adenovirus AdEasy+rAR
- Sequence (P15207 1-902): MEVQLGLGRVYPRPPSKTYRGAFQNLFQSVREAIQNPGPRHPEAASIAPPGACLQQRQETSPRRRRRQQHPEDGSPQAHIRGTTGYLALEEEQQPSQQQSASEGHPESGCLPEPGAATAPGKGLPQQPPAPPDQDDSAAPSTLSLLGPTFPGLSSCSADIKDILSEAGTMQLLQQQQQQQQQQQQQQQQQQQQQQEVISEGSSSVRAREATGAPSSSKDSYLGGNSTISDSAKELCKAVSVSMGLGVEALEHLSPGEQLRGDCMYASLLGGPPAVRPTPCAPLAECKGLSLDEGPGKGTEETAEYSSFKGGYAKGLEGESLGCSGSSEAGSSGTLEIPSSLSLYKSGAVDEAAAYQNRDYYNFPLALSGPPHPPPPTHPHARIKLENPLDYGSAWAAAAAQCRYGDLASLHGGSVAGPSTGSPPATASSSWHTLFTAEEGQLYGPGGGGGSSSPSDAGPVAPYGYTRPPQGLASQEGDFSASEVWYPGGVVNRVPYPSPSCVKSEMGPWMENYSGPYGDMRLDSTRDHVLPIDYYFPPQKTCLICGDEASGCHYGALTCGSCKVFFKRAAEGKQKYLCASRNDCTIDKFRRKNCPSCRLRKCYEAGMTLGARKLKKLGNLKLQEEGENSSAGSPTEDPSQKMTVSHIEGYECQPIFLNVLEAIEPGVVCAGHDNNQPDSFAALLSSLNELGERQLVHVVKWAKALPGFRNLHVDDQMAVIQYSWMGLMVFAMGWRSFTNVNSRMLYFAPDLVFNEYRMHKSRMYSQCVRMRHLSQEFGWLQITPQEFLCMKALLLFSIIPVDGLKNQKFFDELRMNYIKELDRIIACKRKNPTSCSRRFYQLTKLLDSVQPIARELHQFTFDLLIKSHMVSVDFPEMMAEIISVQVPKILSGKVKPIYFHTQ
- method-notes: L929 Androgen Receptor Functional Assay, Adenovirus Transduction
- Assay type: cell-based
- conditions: L929, antagonist testing with R1881, 3000 nM
assay-endpoint: inhibition at 3 µM (%)

CCSCC(C)(O)c1cc2cc([N+](=O)[O-])c(C(F)(F)F)cc2[nH]1 (racemic) [Compound 142] : 78
CCS(=O)(=O)C[C@](C)(O)c1cc2cc([N+](=O)[O-])c(C(F)(F)F)cc2[nH]1 [Compound 156] : 35
CCSCC(O)c1cc2cc([N+](=O)[O-])c(C(F)(F)F)cc2[nH]1 (centres unmarked) [Compound 158] : 21
CCS(=O)(=O)CC(C)(O)c1cc2cc(C#N)c(C(F)(F)F)cc2[nH]1 (single isomer, unassigned) [Compound 222] : 61
CC(C)CSCC(C)(O)c1cc2cc([N+](=O)[O-])c(C(F)(F)F)cc2[nH]1 (centres unmarked) [Compound 170] : 67
CCSCC(C)(OC)c1cc2cc(C#N)c(C(F)(F)F)cc2n1C (centres unmarked) [Compound 235] : 95
CC(O)(CSc1ccc(C(=O)O)cc1)c1cc2cc(Cl)c(C(F)(F)F)cc2n1S(C)(=O)=O (centres unmarked) [Compound 132] : 48
COc1ccc(SCC(C)(O)c2cc3cc(Cl)c(C(F)(F)F)cc3[nH]2)cc1 (centres unmarked) [Compound 131] : -4
CSCC(C)(O)c1cc2cc(Cl)c(C(F)(F)F)cc2[nH]1 (centres unmarked) [Compound 135] : 40
CC(O)(CSc1ccc(N)cc1)c1cc2cc(Cl)c(C(F)(F)F)cc2[nH]1 (centres unmarked) [Compound 104] : 18
CC(O)(CS(=O)(=O)CC(F)(F)F)c1[nH]c2cc([N+](=O)[O-])c(C(F)(F)F)cc2c1Cl (centres unmarked) [Compound 207] : 101
CCSCC(C)(O)c1cc2cc([N+](=O)[O-])c(C(F)(F)F)cc2[nH]1 (single isomer, unassigned) [Compound 149] : 77
CC(O)(CSc1ccc([N+](=O)[O-])cc1)c1cc2cc(Cl)c(C(F)(F)F)cc2[nH]1 (centres unmarked) [Compound 122] : 35
CC(O)(CSCC(F)(F)F)c1cc2cc(F)c(C(F)(F)F)cc2[nH]1 (centres unmarked) [Compound 189] : 85
CSCC(C)(O)c1cc2cc(C#N)c(C(F)(F)F)cc2[nH]1 (centres unmarked) [Compound 136] : 75
CCSCC(O)(CC)c1cc2cc(C#N)c(C(F)(F)F)cc2[nH]1 (centres unmarked) [Compound 223] : 100
CCSCC(C)(O)c1cc2cc([N+](=O)[O-])c(C(F)(F)F)cc2n1C (racemic) [Compound 165] : 100
CCSCC(C)(O)c1[nH]c2cc(C(F)(F)F)c(C#N)cc2c1C (single isomer, unassigned) [Compound 233] : 97
CCSCC(C)(O)c1cc2cc(C#N)c(C(F)(F)F)cc2[nH]1 (single isomer, unassigned) [Compound 217] : 87
CC(O)(CS(=O)(=O)c1ccc(O)cc1)c1cc2cc(Cl)c(C(F)(F)F)cc2[nH]1 (centres unmarked) [Compound 121] : 54
CSCCC(C)(O)c1cc2cc([N+](=O)[O-])c(C(F)(F)F)cc2[nH]1 (centres unmarked) [Compound 47] : 75
CCSCC(C)(O)c1cc2cc([N+](=O)[O-])cc(C(F)(F)F)c2[nH]1 (centres unmarked) [Compound 212] : 101
CSCC(C)(O)c1cc2cc([N+](=O)[O-])c(C(F)(F)F)cc2[nH]1 (single isomer, unassigned) [Compound 144] : 82
CCSCC(C)(O)c1cc2cc(C#N)c(Cl)cc2[nH]1 (centres unmarked) [Compound 225] : 97
CC(O)(CSCC(F)(F)F)c1[nH]c2cc(C(F)(F)F)c([N+](=O)[O-])cc2c1I (centres unmarked) [Compound 213] : 92
CCC(O)(CSCC(F)(F)F)c1cc2cc(F)c(C(F)(F)F)cc2[nH]1 (centres unmarked) [Compound 194] : 40
